src = patent US20260174875A1

Target: human GIP receptor (hGIPR) (Homo sapiens)
Construct: expressed in transfected cells
Sequence (P48546 22-466): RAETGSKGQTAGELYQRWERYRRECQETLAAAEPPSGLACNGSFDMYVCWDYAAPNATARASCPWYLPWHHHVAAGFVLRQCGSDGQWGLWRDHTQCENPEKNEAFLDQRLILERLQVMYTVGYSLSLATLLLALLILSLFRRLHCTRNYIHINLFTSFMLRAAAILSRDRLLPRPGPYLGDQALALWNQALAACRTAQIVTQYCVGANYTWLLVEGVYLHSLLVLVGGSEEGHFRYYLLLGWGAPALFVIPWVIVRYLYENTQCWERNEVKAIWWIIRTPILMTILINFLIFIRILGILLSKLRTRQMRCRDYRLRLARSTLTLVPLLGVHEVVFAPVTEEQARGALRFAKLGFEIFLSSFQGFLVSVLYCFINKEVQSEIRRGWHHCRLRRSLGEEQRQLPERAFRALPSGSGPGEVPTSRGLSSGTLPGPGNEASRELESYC
Test: GIP receptor assay, method A (CRE-luciferase reporter, BHK cells)
Format: cell-based
Details: method A, absence of HSA; read-out: hGIPR Potency, no HSA, EC50
Numbered stars: 1 amine (or outer) side, 2 acyl side, 3 side chain; on linkers, the order of the positions; unused ones are H or OH. Square brackets hold non-standard residues; d marks the D form. Side chains are listed from the residue outwards. * marks the point of attachment. C20 diacid = O=C(O)CCCCCCCCCCCCCCCCCCC(=O)*; C18 diacid = O=C(O)CCCCCCCCCCCCCCCCC(=O)*; C16 diacid = O=C(O)CCCCCCCCCCCCCCC(=O)*; γGlu = O=C(O)[C@H](CCC(=O)[*:2])N[*:1]; AEEA = NCCOCCOCC(=O)O; Aib = CC(C)(N)C(=O)O
Threshold 3 pM. EC50 below it: fulfilled. EC50 at it or above: not fulfilled.

{"SUBSTANCE": "Y[Aib]EGTFTSDYSILLEEQAAREFIEWLLAGGPSSGAPPPSGGGEASHLSTAQTQRLSAELHK([AEEA-AEEA-γGlu-C18 diacid])LATLPRTETGSGSP-NH2 [Compound 49]", "TESTED TARGET": "human GIP receptor (hGIPR) (Homo sapiens)", "CATEGORY": "not fulfilled"}
{"SUBSTANCE": "H[Aib]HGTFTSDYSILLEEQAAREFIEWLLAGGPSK([AEEA-AEEA-γGlu-C18 diacid])GAGQAPGQAPGASHLSTAQTQRLSAELHELATLPRTETGSGSP-NH2 [Compound 47]", "TESTED TARGET": "human GIP receptor (hGIPR) (Homo sapiens)", "CATEGORY": "fulfilled"}
{"SUBSTANCE": "H[Aib]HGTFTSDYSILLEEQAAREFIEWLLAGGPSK([AEEA-AEEA-γGlu-C18 diacid])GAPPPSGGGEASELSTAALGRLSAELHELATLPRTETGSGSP-NH2 [Compound 15]", "TESTED TARGET": "human GIP receptor (hGIPR) (Homo sapiens)", "CATEGORY": "not fulfilled"}
{"SUBSTANCE": "Y[Aib]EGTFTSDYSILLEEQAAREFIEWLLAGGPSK([AEEA-AEEA-γGlu-C16 diacid])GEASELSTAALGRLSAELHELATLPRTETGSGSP-NH2 [Compound 11]", "TESTED TARGET": "human GIP receptor (hGIPR) (Homo sapiens)", "CATEGORY": "fulfilled"}
{"SUBSTANCE": "Y[Aib]EGTFTSDYSILLEEQAAREFIEWLLAGGPSSGAGQAPGASHLSTAQTQRLSAELHK([AEEA-AEEA-γGlu-C18 diacid])LATLPRTETGSGSP-NH2 [Compound 97]", "TESTED TARGET": "human GIP receptor (hGIPR) (Homo sapiens)", "CATEGORY": "fulfilled"}
{"SUBSTANCE": "H[Aib]HGTFTSDYSILLEEQAAREFIEWLLAGGPSSGEASHLSTAQTQRLSAELHK([AEEA-AEEA-γGlu-C18 diacid])LATLPRTETGSGAP-NH2 [Compound 85]", "TESTED TARGET": "human GIP receptor (hGIPR) (Homo sapiens)", "CATEGORY": "fulfilled"}

hey, is EC50 for Y[Aib]EGTFTSDYSILLEEQAAREFIEWLLAGGPSSGEASHLSTAQTQRLSAELHRLK([AEEA-AEEA-γGlu-C18 diacid])TLPRTETGSGSP-NH2 [Compound 80] lower than 3 pM or not?
not fulfilled

hey, is EC50 for Y[Aib]EGTFTSDYSILLEEQAAREFIEWLLAGGPSSGAGQAPGQAPLASHLSTAQTARLSAELHK([AEEA-AEEA-γGlu-C18 diacid])LATLPRTETGSGSP-NH2 [Compound 98] lower than 3 pM or not?
fulfilled

hey, is EC50 for Y[Aib]EGTFTSDYSILLEEQAAREFIEWLLAGGPSRGAPPPSGGGEASHLSTQTQGRLSAELHK([AEEA-AEEA-γGlu-C18 diacid])LATLPRTETGSGSP-NH2 [Compound 72] lower than 3 pM or not?
fulfilled

hey, is EC50 for Y[Aib]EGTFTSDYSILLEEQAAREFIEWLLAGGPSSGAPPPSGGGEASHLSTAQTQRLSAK([AEEA-AEEA-γGlu-C20 diacid])LHRLATLPRTETGSGSP-NH2 [Compound 110] lower than 3 pM or not?
not fulfilled

hey, is EC50 for H[Aib]HGTFTSDYSILLEEQAAREFIEWLLAGGPSSGALQAPGQAPGASHLSTAQTARLSAELHRLK([AEEA-AEEA-γGlu-C18 diacid])TLPRTETGSGSP-NH2 [Compound 106] lower than 3 pM or not?
not fulfilled
